Target: AChE (Electrophorus electricus)
Construct: The enzyme AChE is derived from Electric eel and BChE from equine serum
Assay: biochemical
IC50 less than 400 µM is rule met; IC50 greater than or equal to 400 µM is rule not met.

Below are worked cases with known answers.
| compound | category |
| --- | --- |
| CC(C)(C)NC(=S)NC1CCCCC1 [Compound 2, 1-tert-butyl-3-cyclohexylthiourea] | rule not met |
| S=C(Nc1ccccc1)Nc1ccc(Cl)cc1 [Compound 6, 1-(4-chlorophenyl)-3-phenylthiourea] | rule not met |

-- ask Is the reported IC50 for CCCCN(CCCC)C(=S)Nc1ccccc1 [Compound 4, 1-(1,1-dibutyl)-3-phenylthiourea] strictly below 400 µM?
-- reply rule met

-- ask Say whether its IC50 is strictly beneath 400 µM. Entry: S=C(Nc1ccccc1)Nc1ccccc1Cl [Compound 5, 1-(2-chlorophenyl)-3-phenylthiourea]
-- reply rule not met

-- ask Confirm or reject: IC50 of S=C(Nc1cccc(Cl)c1)NC1CCCCC1 [Compound 3, 1-(3-chlorophenyl)-3-cyclohexylthiourea] lies strictly below 400 µM
-- reply rule met

-- ask I'd appreciate it if you could check whether CC(C)CNC(=S)NC1CCCCC1 [Compound 1, 1-isobutyl-3-cyclohexylthiourea] has IC50 smaller than 400 µM.
-- reply rule not met

----------
Target: AChE (Electrophorus electricus)
Construct: The enzyme AChE is derived from Electric eel and BChE from equine serum; from tissue
Assay: biochemical
Conditions: Conc. 62.5 µg/mL
Entry flag: yes if inhibition at 62.5 µg/mL reaches 40%; no if it does not.

The examples below pair each entry with its known result.
| cpd-smiles | subject-of-test | category |
| --- | --- | --- |
| CCCCN(CCCC)C(=S)Nc1ccccc1 | AChE (Electrophorus electricus) | yes |
| CC(C)CNC(=S)NC1CCCCC1 | AChE (Electrophorus electricus) | yes |
| S=C(Nc1ccccc1)Nc1ccc(Cl)cc1 | AChE (Electrophorus electricus) | no |

-- ask Hi team, for S=C(Nc1cccc(Cl)c1)NC1CCCCC1 , is the recorded inhibition at 62.5 µg/mL at or above 40%?
-- reply yes

-- ask # bool: inhibition at 62.5 µg/mL of CC(C)(C)NC(=S)NC1CCCCC1 >= 40%
-- reply no

-- ask Evaluate S=C(Nc1ccccc1)Nc1ccccc1Cl : inhibition at 62.5 µg/mL at minimum 40%?
-- reply no

----------
Biological target: AChE (Electrophorus electricus, UniProt O42275)
Construct: The enzyme AChE is derived from Electric eel and BChE from equine serum; from tissue
Sequence (O42275 24-633): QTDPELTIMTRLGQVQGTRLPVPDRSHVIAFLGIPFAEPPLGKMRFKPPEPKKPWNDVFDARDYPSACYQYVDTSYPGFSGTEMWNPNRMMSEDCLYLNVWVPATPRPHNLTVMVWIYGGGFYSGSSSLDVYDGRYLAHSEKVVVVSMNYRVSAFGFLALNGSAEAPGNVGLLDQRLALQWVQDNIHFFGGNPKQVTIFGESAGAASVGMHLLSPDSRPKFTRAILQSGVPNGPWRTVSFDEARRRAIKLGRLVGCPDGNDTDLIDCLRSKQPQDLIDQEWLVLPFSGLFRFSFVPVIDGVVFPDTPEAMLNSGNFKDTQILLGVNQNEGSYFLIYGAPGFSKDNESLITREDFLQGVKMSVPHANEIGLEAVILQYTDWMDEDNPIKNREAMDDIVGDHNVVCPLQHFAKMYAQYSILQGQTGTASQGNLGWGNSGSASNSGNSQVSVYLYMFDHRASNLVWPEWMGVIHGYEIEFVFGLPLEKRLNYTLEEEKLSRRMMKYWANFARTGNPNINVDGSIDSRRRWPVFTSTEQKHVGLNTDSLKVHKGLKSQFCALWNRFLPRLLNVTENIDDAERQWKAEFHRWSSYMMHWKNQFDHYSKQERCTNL
Test: biochemical
Conditions: Conc. 1000 µg/mL
readout-label: inhibition at 1000 µg/mL

| cpd-smiles | subject-of-test | value |
| --- | --- | --- |
| CC(C)CNC(=S)NC1CCCCC1 | AChE (Electrophorus electricus, UniProt O42275) | 69.5% |

-- ask Record request: inhibition at 1000 µg/mL value, item S=C(Nc1ccccc1)Nc1ccccc1Cl
-- reply 66.8%

-- ask Which inhibition at 1000 µg/mL value belongs to CCCCN(CCCC)C(=S)Nc1ccccc1 ?
-- reply 93.6%

-- ask Bench note: what inhibition at 1000 µg/mL did S=C(Nc1ccccc1)Nc1ccc(Cl)cc1 show?
-- reply 69.6%

-- ask Please look up its inhibition at 1000 µg/mL: CC(C)(C)NC(=S)NC1CCCCC1
-- reply 63.3%

----------
Listed molecules paired with reported inhibition at 250 µg/mL
Target: BChE (Equus caballus)
Construct: The enzyme AChE is derived from Electric eel and BChE from equine serum; from tissue; host or cells: equine serum
Sequence (P81908 whole entry): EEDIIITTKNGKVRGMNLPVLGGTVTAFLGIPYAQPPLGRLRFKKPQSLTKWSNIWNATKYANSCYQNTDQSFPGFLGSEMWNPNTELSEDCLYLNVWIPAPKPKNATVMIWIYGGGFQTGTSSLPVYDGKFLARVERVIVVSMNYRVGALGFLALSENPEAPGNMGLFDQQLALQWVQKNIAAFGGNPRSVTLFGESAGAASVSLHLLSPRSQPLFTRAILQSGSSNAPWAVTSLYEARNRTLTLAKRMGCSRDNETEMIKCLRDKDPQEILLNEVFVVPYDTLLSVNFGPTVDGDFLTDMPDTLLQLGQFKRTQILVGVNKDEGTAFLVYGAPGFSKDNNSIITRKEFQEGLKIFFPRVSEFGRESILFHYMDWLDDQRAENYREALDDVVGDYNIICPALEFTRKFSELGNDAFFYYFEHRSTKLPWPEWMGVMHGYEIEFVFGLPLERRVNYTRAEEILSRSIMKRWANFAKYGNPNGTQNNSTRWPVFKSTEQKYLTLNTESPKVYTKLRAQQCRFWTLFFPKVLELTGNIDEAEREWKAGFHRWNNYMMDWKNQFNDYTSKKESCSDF
Assay: Ellman's assay, BChE inhibition
Assay type: biochemical
Conditions: Conc. 250 µg/mL
Express the result in % but write the number alone.

Worked cases, inhibition at 250 µg/mL given:
| molecule | reading-unit | inhibition at 250 µg/mL |
| --- | --- | --- |
| S=C(Nc1ccccc1)Nc1ccccc1Cl [Compound 5, 1-(2-chlorophenyl)-3-phenylthiourea] | % | 44.5 |
| CC(C)CNC(=S)NC1CCCCC1 [Compound 1, 1-isobutyl-3-cyclohexylthiourea] | % | 61 |
| CC(C)(C)NC(=S)NC1CCCCC1 [Compound 2, 1-tert-butyl-3-cyclohexylthiourea] | % | 51.4 |
| S=C(Nc1cccc(Cl)c1)NC1CCCCC1 [Compound 3, 1-(3-chlorophenyl)-3-cyclohexylthiourea] | % | 65.5 |
| S=C(Nc1ccccc1)Nc1ccc(Cl)cc1 [Compound 6, 1-(4-chlorophenyl)-3-phenylthiourea] | % | 49 |

Consider the additional molecule presented here.
-- ask Endpoint output: inhibition at 250 µg/mL of CCCCN(CCCC)C(=S)Nc1ccccc1 [Compound 4, 1-(1,1-dibutyl)-3-phenylthiourea] . Value?
-- reply 89.8

Cited source: paper PMC8347686
